# Test system: immobilized complementary DNA
# ASSAY PROTOCOL: Surface plasmon resonance (SPR) hybridization kinetics
# Assay type: binding
# ASSAY CONTEXT: SPR; ratio of dissociation and association rate constants; † values uncertain; read-out: equilibrium dissociation constant Kd
[RMPγPNA-N] = PNA unit with R-MP-gamma backbone modification (N: the base)
MEASUREMENT TYPE: pKd
# reply with the number alone; pKd is -log10 of concentration in mol/L

Documented pKd of H-GCATGTTTGA-NH2 [PNA2] (PNA; 1 R-MP-gamma unit; C-terminal amide; modified_base (6)..(6) R-MP-gamma-backbone modified nucleotide) : 9.38

Lab note: H-GCATGTTTGA-NH2 [PNA4] (PNA; 5 R-MP-gamma units; C-terminal amide; modified_base (2)..(2) R-MP-gamma-backbone modified nucleotide; modified_base (4)..(4) R-MP-gamma-backbone modified nucleotide; modified_base (6)..(6) R-MP-gamma-backbone modified nucleotide; modified_base (8)..(8) R-MP-gamma-backbone modified nucleotide; modified_base (10)..(10) R-MP-gamma-backbone modified nucleotide) gave pKd of 10.39

Quick note, pKd for H-GCATGTTTGA-NH2 (all [RMPγPNA-N], methylation of C not given here; C-terminal amide) [PNA5] landed at 10.27

Documented pKd of H-GCATGTTTGA-NH2 [PNA3] (PNA; 3 R-MP-gamma units; C-terminal amide; modified_base (4)..(4) R-MP-gamma-backbone modified nucleotide; modified_base (6)..(6) R-MP-gamma-backbone modified nucleotide; modified_base (8)..(8) R-MP-gamma-backbone modified nucleotide) : 9.52
